Reference for the values: the supplement of paper PMC12764529

Measured folding stability dG unfold values are reported for all entries that follow.
ASSAY NOTES: folding stability dG unfold (combined trypsin and chymotrypsin); higher = more stable
Reply with just the number (in kcal/mol).

SEQUENCE CHAIN	VALUE UNITS	folding stability dG unfold
SAGEKKLTEEEIKKLVEELLKKLKPGEKEKVTLEIELTLEDGRKVKIRITVEVKDGKLVVKIEVEELPSAGG [r19_220_TrROS_Hall]	kcal/mol	3.68

Below: the item to evaluate.
-- ask Given the entry SAGGSAGGSAGTIKVNGKTVTITKNKKTGKYTITVTLKNGEKKTFVFPSKEDVEEALKALSAGGSAGGSAGG [r11_238_TrROS_Hall] , report its measured folding stability dG unfold.
-- reply 3.94

----------
ASSAY NOTES: folding stability dG unfold from trypsin proteolysis; higher = more stable
OBSERVATION TYPE: folding stability dG unfold (kcal/mol)
Reply with just the number (in kcal/mol).

Field: example entries. Status: answers known.
SEQUENCE CHAIN	folding stability dG unfold (kcal/mol)
SAGGSVEEIAERLAKELAPPDERVEVEVEEIVTDPVVGKIKEVKIKATIYPPDGTTRTVEYTIPYDELSAGG [r13_215_JUSTAS]	0.407
SAGGSAGGEEEELTEEERRELERRRRRLEEERRRRRPPRPRLRLTLTVRLPDGSTVTLEVEIRLSAGGSAGG [r6_844_TrROS_Hall]	2.2
SAGKKKKVVITIKVEKSEEEVKELVKKLAEEAKKKGKEVVIKIEVDGKTYEFTLEDIKKLPPNAKVTLLSAG [r5_626_TrROS_Hall]	1.56

-- ask Given the entry SAGGSAGGSAGKKEKVILLPVDAEPDETPEELAKKLKELNPDVEVLGFDPETGYVLVKVPSAGGSAGGSAGG [r11_465_TrMRF] , report its measured folding stability dG unfold.
-- reply 0.107

-- ask Given the entry SMKIVIVKNKDGTVIVRITFPNGEEITITAKTEEEAKKAIEELIKKLQEKYNIKIKIEVKPVKPGEVIEESA [r9_786_TrROS_Hall] , report its measured folding stability dG unfold.
-- reply 2.92

-- ask Given the entry SAGGSAMEIKTLETKTVKTEKLPDGSTKVTTTYKTVDPSGGKTSNYIKTTLYAPDGKKTSTEVKEKSAGGSA [r15_758_JUSTAS] , report its measured folding stability dG unfold.
-- reply 0.355

-- ask Given the entry SAGGSAGGSATLTLELEIEVDGVRFRVRAELRLDEDGRLHLRVEIEVEPLPPPPPLVAEGEELSAGGSAGGS [r20_30_TrROS_Hall] , report its measured folding stability dG unfold.
-- reply 2.88

----------
ASSAY NOTES: folding stability dG unfold (combined trypsin and chymotrypsin); higher = more stable
OBSERVATION TYPE: folding stability dG unfold (kcal/mol)
Reply with just the number (in kcal/mol).

Field: example entries. Status: answers known.
SEQUENCE CHAIN	VALUE UNITS	MEASURED NUMBER
SAGGSAGGSMIDDIVEKLKIPPGTRIVFNDGEVKYFDNREDIKEWAKNGYPAEKLKNIVAFPESAGGSAGGS [r12_430_TrMRF]	kcal/mol	0.251
SAGGMKIKIEITEIKKEGDTVYIKVKITITLPNGKVIKIEMTLRYNKETGKWEIVKIEKIEIFPLPESAGGS [r16_729_TrROS_Hall]	kcal/mol	5.46
SAGGSAGGSNPRYRIVLPISREQLEELGLTPEQVAEAIREAFPSLSPDTRFYFPEDGNLVVVGSAGGSAGGS [r12_50_TrMRF]	kcal/mol	1.4

-- ask Given the entry SAGGSKFEVEKLPDNTYRFKVPNENGETLEITVEKLPDGAILVTHPSNPKPVLFPASTTIEDLLKKSAGGSA [r2_338_TrMRF] , report its measured folding stability dG unfold.
-- reply 1.95

-- ask Given the entry SAGGSAGGSAPNLEVEEQRNPDGGMEMEIIRLKNDGLTIFFMEMRPDDKTMTMLMLMPLDASAGGSAGGSAG [r3_126_TrROS] , report its measured folding stability dG unfold.
-- reply 2.48

-- ask Given the entry SAGGSAGGSAILVPSPETAKKIMDELRKKTGAKVKMKPIGTGADGKEYYRIEVVPPDKPLDSAGGSAGGSAG [r3_59_TrMRF] , report its measured folding stability dG unfold.
-- reply 0.0705

-- ask Given the entry SAGPEREVEVETLVIEAEDGKERLVLRLVRVDGRLYLEVRRYRDGKWEEVARFEAPEEITLSPELLKALSAG [r5_490_TrROS_Hall] , report its measured folding stability dG unfold.
-- reply 4.16

-- ask Given the entry SAGGSAGGSAGGPVFTPVGAGDEDTVTTETLPDGSPVLRYTVPGTGVVEVALPDGTLLAESAGGSAGGSAGG [r11_601_JUSTAS] , report its measured folding stability dG unfold.
-- reply -0.883

-- ask Given the entry SAGGSAGGSAGGSMIVLRMSADEIKKLLPPGAKIKKIEYDEETDEVYVIIEFDKDGKIISAGGSAGGSAGGS [r4_435_TrROS_Hall] , report its measured folding stability dG unfold.
-- reply 1.49

-- ask Given the entry SAGGSNVEVERHPDGHMTFTFPDEDGKDVKITIHMHPDGMYMIRVPGNNQPIYFPPGQSIEDLLKLSAGGSA [r2_338_TrROS] , report its measured folding stability dG unfold.
-- reply 2.63

-- ask Given the entry SAGGSAGGSMSTVSTVTHPDGTPLTVTTTPLPDGTVLATYSAPDGTVVATFDVSTGTTVVVPLSAGGSAGGS [r20_159_JUSTAS] , report its measured folding stability dG unfold.
-- reply 1.44

----------
ASSAY NOTES: folding stability dG unfold (combined trypsin and chymotrypsin); higher = more stable
OBSERVATION TYPE: folding stability dG unfold (kcal/mol)
Reply with just the number (in kcal/mol).

Field: example entries. Status: answers known.
SEQUENCE CHAIN	VALUE UNITS	folding stability dG unfold
SAGGSAGGSAGGSMPIVRIEVKHPDQKHTFFIPPDMPLEDIADELASQYPNVEVKIEPVSAGGSAGGSAGGS [r4_155_TrROS]	kcal/mol	0.935
SAGGSAIVIPVKSWEEFVEALKNAPASVEIIADLPDGNVIKAKIDPSKGPKIIITEVFPVPPELAGSAGGSA [r15_577_TrMRF]	kcal/mol	0.859
SAGGSAGGSKAEVVEEKEIFTFPNGFVIKLTKVKNENGEEFEFIEIVPLPPELTEEELKKLKESAGGSAGGS [r12_775_TrROS_Hall]	kcal/mol	1.79

-- ask Given the entry SAGGSMTIKINGAEITDIEVRDDGTIRIKVRVTNENGEEVEVTLEIRIEPAPPVEVVHPDDPEALESAGGSA [r2_368_TrROS_Hall] , report its measured folding stability dG unfold.
-- reply 2.73

-- ask Given the entry SAGGSAGGSAGKLKVEIEERNGKLVLKVKLELEPEPEPVEVEKKVEVKTETKMSLEELKKSAGGSAGGSAGG [r17_51_TrROS_Hall] , report its measured folding stability dG unfold.
-- reply 0.471

----------
ASSAY NOTES: folding stability dG unfold from trypsin proteolysis; higher = more stable
Measured folding stability dG unfold values are reported for all entries that follow.
Reply with just the number (in kcal/mol).

SEQUENCE CHAIN	folding stability dG unfold (kcal/mol)
SAGGSAGGSAGGKDPYLALKTVRVRLVRDYLLGDKPVKTELIEEADVPVLIVFEPEELLSAGGSAGGSAGGS [r10_492_TrMRF]	0.0714

-- ask Given the entry SAGGSAGGSGKVLVLPLPGGTVEEVKEIAKEIKEKYPNAKVTTEVFPTPEGDLVAVVTLENPESAGGSAGGS [r12_425_TrMRF] , report its measured folding stability dG unfold.
-- reply 0.307

-- ask Given the entry SAGGSAGGSAGGSMGPVPVWITIKIPDKNGKPKRKIEIPMEGPNMTPSEIRKQAKPFIKSAGGSAGGSAGGS [r4_375_TrROS] , report its measured folding stability dG unfold.
-- reply -0.281

-- ask Given the entry SAGGSAGGSDVEDIIKKLKIPPGYRMRFPDGKSHKFNNLDDIRNLAEMGMPPDNIDKIQIQPYSAGGSAGGS [r12_430_TrROS] , report its measured folding stability dG unfold.
-- reply -0.152

----------
ASSAY NOTES: folding stability dG unfold from trypsin proteolysis; higher = more stable
OBSERVATION TYPE: folding stability dG unfold (kcal/mol)
Reply with just the number (in kcal/mol).

SEQUENCE CHAIN	MEASURED NUMBER
SAGGSAGGSAGGMVIEIDVPPSVPASEVKEKVKAELLKKGVPKDTEIKVIVKPKNPELLSAGGSAGGSAGGS [r10_746_JUSTAS]	-0.656
STLEQILDAIESMPPGWVFRIKIHHPNGEPHEHRFNMTYDDIKAQLENMIDHHPGQPIKIKIEFMPPEDFSA [r9_37_TrROS]	2.97
SAGGMFLRIEPEDGSRFEIPLNDPSLPLEVVVGLVSKYMDGPVKLKLTLVLPEEEVEYEYEIPLEKKSAGGS [r16_216_TrMRF]	1.24

Below: the item to evaluate.
-- ask Given the entry SAGGSAGGSASSIVLTKTPGSYVLTEVELSSSTYPPSPPDYGSVVTVTPLEVVEREPGVPLPSAGGSAGGSA [r18_255_JUSTAS] , report its measured folding stability dG unfold.
-- reply 0.0789
